# target_of_assay: Shp1 (Homo sapiens (Human))
# Sequence (P29350 203-595): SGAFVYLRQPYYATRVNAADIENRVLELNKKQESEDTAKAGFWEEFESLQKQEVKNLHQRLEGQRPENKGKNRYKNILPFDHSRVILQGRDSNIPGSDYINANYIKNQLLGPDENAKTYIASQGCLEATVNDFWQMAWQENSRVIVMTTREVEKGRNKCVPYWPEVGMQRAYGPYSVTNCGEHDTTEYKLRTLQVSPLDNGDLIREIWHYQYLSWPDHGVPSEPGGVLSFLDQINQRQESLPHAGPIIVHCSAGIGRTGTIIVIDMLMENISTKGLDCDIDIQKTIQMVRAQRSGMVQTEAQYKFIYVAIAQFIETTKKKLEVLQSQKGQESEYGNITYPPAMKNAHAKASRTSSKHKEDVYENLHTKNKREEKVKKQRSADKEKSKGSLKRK

{"columns": ["smiles_string", "IC50 [µM]"],
 "data": [
  ["O=C1Nc2ccc(C(=O)NCc3ccc(Cl)cc3)cc2/C1=N/Nc1cccc(C(=O)O)c1", 19.4],
  ["O=C1Nc2ccc(S(=O)(=O)O)cc2/C1=N/Nc1ccccc1[N+](=O)[O-]", 68.1],
  ["O=C1Nc2ccc(C(=O)O)cc2/C1=N/Nc1cccc(C(=O)O)c1", 72.5],
  ["CC(C)NS(=O)(=O)c1ccc2c(c1)/C(=N/Nc1cccc(C(=O)O)c1)C(=O)N2", 15.7]
]}

###

# target_of_assay: UniProtKB Q06124
# assay_text: PTP activity assay (DiFMUP substrate) with GST-Shp2
# Format: biochemical
# stated_conditions: concentration not given
Listing of recorded % PTP activity by entry.

{"columns": ["molecule", "% PTP activity"],
 "data": [
  ["CN1C(=O)/C(=N\\Nc2ccccc2[N+](=O)[O-])c2cc(S(=O)(=O)N(C)C)ccc21", "73 ± 3% (6)"],
  ["CN(C)CCCNS(=O)(=O)c1ccc2c(c1)/C(=N/Nc1ccccc1Cl)C(=O)N2", "80 ± 0.7% (6)"],
  ["O=C1Nc2ccc(S(=O)(=O)NCN3CCOCC3)cc2/C1=N/Nc1ccccc1Cl", "41 ± 4% (6)"],
  ["O=C1Nc2ccc(S(=O)(=O)N3CCOCC3)cc2/C1=N/Nc1ccccc1[N+](=O)[O-]", "36 ± 8% (6)"],
  ["COC(=O)c1cc(NC(=O)c2ccc3cc(C(=O)OC)ccc3c2)cc(C(=O)OC)c1 [HL2-026-Intermediate]", "40 ± 4% (6)"],
  ["O=C1Nc2ccc(S(=O)(=O)NCc3ccc(Cl)cc3)cc2/C1=N/Nc1ccccc1Cl", "32 ± 17% (12)"],
  ["CN(C)CCNS(=O)(=O)c1ccc2c(c1)/C(=N/Nc1ccccc1Cl)C(=O)N2", "89 ± 3% (6)"],
  ["NS(=O)(=O)c1ccc2c(c1)/C(=N/Nc1ccccc1[N+](=O)[O-])C(=O)N2", "13 ± 5% (12)"]
]}

###

# target_of_assay: Shp2 (Homo sapiens (Human), UniProt Q06124)
# Sequence (Q06124 205-593): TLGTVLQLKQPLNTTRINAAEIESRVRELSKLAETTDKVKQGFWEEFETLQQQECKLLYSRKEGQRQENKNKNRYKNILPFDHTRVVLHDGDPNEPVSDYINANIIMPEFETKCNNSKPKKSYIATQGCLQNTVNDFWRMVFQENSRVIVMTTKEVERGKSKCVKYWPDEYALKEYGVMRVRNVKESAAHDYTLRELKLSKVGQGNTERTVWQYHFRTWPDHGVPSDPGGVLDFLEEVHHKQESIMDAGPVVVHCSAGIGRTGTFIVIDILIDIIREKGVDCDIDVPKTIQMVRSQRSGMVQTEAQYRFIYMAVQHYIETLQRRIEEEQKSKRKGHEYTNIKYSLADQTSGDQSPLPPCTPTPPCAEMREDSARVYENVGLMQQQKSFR
# assay_text: PTP activity assay (DiFMUP substrate) with GST-Shp2
# Assay type: biochemical
# stated_conditions: concentration not given
A collection of compounds and their measured % PTP activity

{"columns": ["smiles_string", "% PTP activity"],
 "data": [
  ["COCCNS(=O)(=O)c1ccc2c(c1)/C(=N/Nc1ccccc1Cl)C(=O)N2", "32 ± 3% (6)"],
  ["CN(Cc1ccccc1)S(=O)(=O)c1ccc2c(c1)/C(=N/Nc1ccccc1Cl)C(=O)N2", "64 ± 12% (6)"],
  ["O=C1Nc2ccc(S(=O)(=O)O)cc2/C1=N/Nc1nc2ccccc2s1", "46 ± 4% (3)"],
  ["CN(C)CCCNS(=O)(=O)c1ccc2c(c1)/C(=N/Nc1ccccc1[N+](=O)[O-])C(=O)N2", "77 ± 2% (6)"]
]}

###

# target_of_assay: Shp2 (Homo sapiens (Human), UniProt Q06124)
# assay_text: PTP activity assay (DiFMUP substrate) with GST-Shp2
# Type: biochemical
# stated_conditions: at 20 μM
% PTP activity for assorted compounds
measured_attribute: % PTP activity

{"columns": ["smiles_string", "result"],
 "data": [
  ["CC(C)NS(=O)(=O)c1ccc2c(c1)/C(=N/Nc1ccccc1C(=O)N(C)C)C(=O)N2", "48 ± 0% (2) At 20 μM"],
  ["CC(C)NS(=O)(=O)c1ccc2c(c1)/C(=N/Nc1ccccc1C(=O)NCc1cccnc1)C(=O)N2", "46 ± 2% (2) At 20 μM"],
  ["NS(=O)(=O)c1ccc2c(c1)/C(=N/Nc1ccccc1C(=O)O)C(=O)N2", "65 ± 3% (3) at 20 μM"],
  ["CC(C)NS(=O)(=O)c1ccc2c(c1)/C(=N/Nc1ccccc1)C(=O)N2", "58.53% (1) at 20 μM"]
]}
